- TESTED SYSTEM: human SK3 channel (hKCa2.3) (Homo sapiens, UniProt Q9UGI6)
- ASSAY NAME: Automated whole cell patch-clamp (QPatch 16 HT), inhibition of SK3 current
- TEST PARAMETERS: HEK-293 cells stably expressing hKCa2.3; symmetrical K+ solutions, free calcium 400 nM; effects normalized to N-methyl bicuculline
I'd be grateful if you could share measured IC50 for these entries.

Answered cases to consult:
MOLECULE: CN(C)C(=O)CNC(=O)CC(Nc1nc2ccccc2[nH]1)c1cccc(C(F)(F)F)c1 (centres unmarked)
IC50: < 10 µM

MOLECULE: CCOC(=O)CN(CC)C(=O)CC(Nc1nc2ccccc2[nH]1)c1cccc(C(F)(F)F)c1 (centres unmarked)
IC50: < 10 µM

MOLECULE: O=C(CC(Nc1nc2ccccc2[nH]1)c1cccc(C(F)(F)F)c1)NCC1CCCO1 (centres unmarked)
IC50: < 10 µM

MOLECULE: CN1CCN(C(=O)CC(Nc2nc3ccccc3[nH]2)c2cccc(C(F)(F)F)c2)CC1=O (centres unmarked)
IC50: 10 to 100 µM

Record CSCCNC(=O)CC(Nc1nc2ccccc2[nH]1)c1cccc(C(F)(F)F)c1 (centres unmarked) , field IC50: < 10 µM
